Measured values drawn from the nanobody polyreactivity screen of Harvey et al. (2022) for this set.

# procedure-text: yeast display, Sf9 membrane polyspecificity reagent, FACS + sequencing; frameworks hold sequencing errors
assay-metric: polyreactivity (PSR sort gate)

1) QVQLVVSGGGLVQAGGSLRLSCAASGGTFQHNTMGWYRQAPGKERELVAAIRWSDGSTYYADSVKGRFTISRDNAKTTVYLQMNSLKPEDTSVYYCNRAYTASYIPRVGFWGQGTQVTVSS
high polyreactivity
2) QVQLVESGGGLVQAGGSLRLSCAASGFTFGGYAMGWYRQAPGKERELVAAITRSGGRTYYADSVKGRFTISRDNAKNTVYLQMNSLKPEDTAVYYCNAYVIRALGYGGYDYWGQGTQVTVSS
high polyreactivity
3) QVQLVESGGRLVQAGGSLRLSCAASGRTFNRNAMVWYRQAPGKERELVAAISRGGGGTYYADSVMGRFTISRDNAKNTVYLQMNSLKPEDTAVYYCNAAPYYVMYLLWSSNTYDYWGQGTQVTVSS
high polyreactivity

* * *

# procedure-text: yeast display, Sf9 membrane polyspecificity reagent, FACS + sequencing; frameworks hold sequencing errors
assay-metric: polyreactivity (PSR sort gate)

Worked set:
1) QVQLVESGGGLVQAGGSLRLSCAASGSTFDPYGKGWYRQAPGKERELVATITYSSGSTSYADSVKGRFTISRDHAKNTVYLQMNSLKPEDTAVYYCAKKYYTGYGYWGQGTQVTVSS
low polyreactivity
2) QVQLVESGGGLVQAGGSLRLSCAASGRIFYGYAMGWYRQAPGKERELVAAITWSGGRTYYADSVKGRFTISRDNAKNTVYLQMNSLKPEDTAVYYCNRPRRTSPSTYYHWGQGTQVTVSS
low polyreactivity
3) QVQLVESGGGLVQAGGSLRLSFAASGSIFYYYAMGWYRQAPGKERELVAAINYSGGSTYADSVKGRFTISLDNAKNTVYLQMNSLKPEDTAVYYCATRLYGYWPYGFEYWGQGTQVTVSS
low polyreactivity
4) QVQLVESGGGLVQAGGSLRLSCAATGFTFCANAMGWYRQAPGKERELVAAISWTGVNTYYADSVKGRFTISRDNAKNTVYLQMNSLKPEDTAVYSCAAEQWSTGYYYWGQGTQVTVSS
high polyreactivity

# input for lookup
Fill in the blank: the reported polyreactivity (PSR sort gate) of "QVQLVESGGGLVQAGGSLRLSCAASGRTSYGYAMGWYRQAPGKERELVAGISRSGSSTYYADSVKGRFTISRDNAKNTVYLQMNSMKPEDNAVYYCNAARPFNRVPRQTWKMGYWGQGTQVTVSS" is ____.
high polyreactivity

* * *

# procedure-text: yeast display, Sf9 membrane polyspecificity reagent, FACS + sequencing; frameworks hold sequencing errors
assay-metric: polyreactivity (PSR sort gate)

1) QVQLVESGGGLVQAGGSLRLSCAASGRIFLINAMGWYRQARGKEWELVAAIRTGGNTYYADSVKGRFTISRDNAKTTVYLQMNSLKPEDTAVYYCAAARIYPYYRWSGAHRSDVDYWGQGTQVTVSS
low polyreactivity
2) QVQLVESGGGLVQAGGSLRLSCAASGITFYKYAMGWYRQAPGKERELVAAITSTGGRTYYADSVKGRFTISGDNAKNSVYLQMNSLKPEDTAVYYCAKVFNQFIEHDYWGQGTQVTVSS
low polyreactivity

* * *

# procedure-text: yeast display, Sf9 membrane polyspecificity reagent, FACS + sequencing; frameworks hold sequencing errors
assay-metric: polyreactivity (PSR sort gate)

1) QVQLVESGGGLVQAGGSLRLSCSASGYIFLRNAMGWYRQAPGKERALVAAIRRTGGSTYYADSVKGRFTISRDNSKNTVYLQMTSLKPEDTAVYYCDKRSYTGYEYWGQGTQVTVSS
low polyreactivity
2) QVQLVESGGGLVQAGGSLRLSCAASGRTIDSYAMGRNRQAPGKERELVAAISWGGGSTYYADSVKGRFTISRDNAKNTVYLQMNSLKPEDTAVYYCAARWNYTEFDYWGQGTQVTVSS
low polyreactivity
3) QVQLVESGGGLVQAGGSLRLSCAASGRIFDYNTMGWSRQAPGKERELVAAITGGTGSTYYADSVKGRFTISRDNAKNTVYLQMNSLKPEDTAVYYCAAGFHKRVTPEILYDYWGQGTQVTVSS
low polyreactivity

* * *

# procedure-text: yeast display, Sf9 membrane polyspecificity reagent, FACS + sequencing; frameworks hold sequencing errors
assay-metric: polyreactivity (PSR sort gate)

Worked set:
1. QVQLVESGGGLVQAGGSLRLSCAASGRIFWYYAMGGYRQAPGKEREFVATINTSGGSTYYADSLKGRFTISRDYARSTVCLQMNSLTPEDTAVYYCYAACRYYRTEYYSWGQGTQVTVSS
low polyreactivity
2. QVQLVESGGGLVQAGGSLRLSCAASGRTFPLYAMGWYRQAPGKERELVAAISLSGGRTYYADSVKGRFTISRDNAKNTVYLQMNSLKPEDTAVYYCAARGTLSAQVGIRRYDYWGQGTQVTVSS
low polyreactivity
3. QVQLVESGGGLVQAGGSLRLSCAASGSIFVWNAMGWYRPAPGKERELVAAIRSDDDSTYYADSVKGRFTISRDNAKNTVYLQMNSLKPEDTAVITALVDSPTFSHVKPWDGGDYWGQGTQVTVSS
low polyreactivity
4. QVQLVESGGGLVQAGGSLRLSCAASGSTIPYYAMGWYRPAPGKERELVARIRWNGDSTYYADSVKGRFTISRDNAKNTVYLQMNSLKPEDTAVYYCARQGYTLYRTRYRYDYWGQGTQVTASS
high polyreactivity

# input for lookup
Fill in the blank: the reported polyreactivity (PSR sort gate) of "QVQLVESGGGLVQAGGSLRLSCAASGNIFLYYAMGWYIPAPGKEREFVSDIDSSGASTYYADSVKGRFTISRDNAKNTVYLQMNSLKPEDTAVYYCAAEFHWWYAGYDYGYWGQGTQVTVSS" is ____.
low polyreactivity

* * *

# procedure-text: yeast display, Sf9 membrane polyspecificity reagent, FACS + sequencing; frameworks hold sequencing errors
assay-metric: polyreactivity (PSR sort gate)

1) QVQLVESGGGLVQAGGSLRLSCAASGRTFYANVMGWYRQAPGKERELVAAITSGGSSYYADSVKGRFTISRDTAKNTVYLQMNSLKPDDTAVYYCAAGSNLNGVWFDYWGQGTQVTVSS
low polyreactivity
2) QVQLVESGGGLVQAGGSLRLSCAASGFIFATYTMGWYRQAPGKERELVAAITWRGGSTYYADSVKGRFTISRDNAKNTVYLQMNSLKPEDTAVYYCAAPDVYSYRYVEDDYWGQGTQVTVSS
low polyreactivity

* * *

# procedure-text: yeast display, Sf9 membrane polyspecificity reagent, FACS + sequencing; frameworks hold sequencing errors
assay-metric: polyreactivity (PSR sort gate)

Worked set:
1) QVQLVESGGGLVQAGGSLRLSCAASGSTFGQYGMGWYRQAPGKERELVAAIRIGGSTNYADSVKGRFTISRDNAKNTVYLQMNSLKPEDTAVYYCNAGGTPTWTHGGYIELDYWGQGTQVTVSS
low polyreactivity
2) QVQLVESGGGLVQAGGRLRLSCAASGRIFPVYTMGWYRQAPGKERELVAAISGNGASTYYADSVKGRFTISRDNAKNTVYLQMNSLKPEDTAVYYCAAYFYYWGSTFVRYEYWGQGTQVTVSS
high polyreactivity
3) QDQLVESGGGLVQAGGSLRISCDASGTTFQTYVMGWYRQAPGKERELVAAISSGGSTNYADSVKGRFTISRDNAKNTVYLQMNSLKPEDTAVYYCAKRWPYFRRGKDGYWGQGTQVTVSS
low polyreactivity
4) QVQLVESGGGLVQAGGSLRLSCAASGSTFTRNAMGWYRPAPGKERELVAAITSSGGYTYYADSVKGRFTISRDNAKNTVYLQMNSLKPEDTAVYYCAAYPHRPRDRELDHWGQGTQVTVSS
low polyreactivity

Fill in the blank: the reported polyreactivity (PSR sort gate) of "QVQLVESGGGLVQSGGSLRLSCAASGSIFTWYTMGWYRQAPGKERELVAAISWSGGRTYYADSVKGRFTISRDNAKNTVYLQMNSLKPEDTAVYYCAASAYGRPPFDYWGQGTQVTVSS" is ____.
high polyreactivity

Same thing, different sequence: "QVQLLESCGGLVQAGGSLRLSCAASGIIFARYAMGWYRPAPGKERELVASITTSGGRTYYADSVKGRFTISRDNAKNTVYLQMNSVKPEDTAVYYCAAYYKRDQMYYWGQGTQVTVSS"
high polyreactivity

Same thing, different sequence: "QVQHVESVGGLVQAGGSLRLSCASSGRTLFYYTMRWYRQARGTERELVAAISSGDSTNYADSVKGRFTISRDNAKNTVYLHMNSLKPEDTAVYYCAARFYQIRRRYDYWGQGTQVTVSS"
low polyreactivity

Same thing, different sequence: "QVQIVESGGGLVQAGGSLRLSCAASGLTFYQNAMGWYRQAPGKERELVAAITRSGGSTYYADSVKGRFTISRDNAKNTVYLQMNSLKPEDTAVYYCAARGGLSRRYEYWGQGTQVTVSS"
high polyreactivity

Same thing, different sequence: "QVQLEESCGGLVQAGGSLRLSCAASGSIFGTYAMGLYRHAPGKEREFVADISGIGTSTYYADSVKGRFTISRDNAKNTVYLQMNSLKPEDTAVYYCAAESFDTVEYDYWGQGTQVTVSS"
low polyreactivity

Same thing, different sequence: "QVQLVESGGGLVQAGGSLRLSCAASGRTFWKYAMGWYRQAPGKERELVAAITSSGGSTYYADSVKGRFTISRDNAKNTVYLQMNSLKPEDTAVYYCAAPGWGLGYNYWGQGTQVTVSS"
low polyreactivity

Same thing, different sequence: "QVQLVESGGGLVQAGGSLRLSCAASGSTFTSYDMGWYRQAPGKERELVAAITISSGGTYYADSVKGRFTISRDNAKITVYLQMNSLKPEDTAVYYCAADIFADASYDYWGQGTQVTVSS"
low polyreactivity
